# assay comment: protease stability score; higher = more stable; yeast display proteolysis, trypsin and chymotrypsin;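 further: log10 excess protease needed over predicted unfolded state with 0 meaning unfolded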
result type: protease stability score
Write the number on its own, no unit after it.

These solved cases illustrate the format of a correct answer.
EHENVRLARSLIDALQQNNPQQAQENADKDVQYEVGEKRIHGREQYSDTMRKNKEQMEFRVHSVDMDEHNGRVTVNLTFIESTNGDPKQDRANLVIEFHNGRIQHVRMSKDG | -0.268
DDDAMRKAHEFYTAYNTNDEDTLSKQFDPNARIRYGDEVIHGREQLKKWMEEIQREMSVSVRVKSMKVRGDEIHIKFDMTVDINGNPLEFDAQAEFRFRNGKFIDFTLQIPEEAQKQEHG | 0.704
DHTADRIIRNLMDALNQNDEDKAVKLMDENVRFRIGDKEYQGRERWKKLLQDWNKHASIRYTVDSMDRRGEKVHVKFELKVNINGNPVTVRVTVEFEIRNGKIKSAVYEMDPDDAKEVWS | 0.925

Now look at this one.
Provide measured protease stability score value, entry: `DEDAIRVANEILKAIKEGDPHQIEEQFDKHARATYGDKTIEGSKNIMNFQKQMMDRASIKIDSVRLKNQGDHANLDYRAKVTHNGTPNDRRFTADVTVRNGKMRVFDVESRP`
-0.365
